assay: In vitro skin permeation, Franz cells, frozen human abdominal skin; assay type: in vitro ADME; settings: topical or ocular, 10 mg, pH 7.4; Example 7; frozen human skin; gel of Table 13 (formulation 7.2)
result_type: bioavailability at 16 h, 1.5 % FBE (%)
Give bare numbers, in %.

Record summary for CN1CCC[C@H]1c1cccnc1 : reported bioavailability at 16 h, 1.5 % FBE = 18

---

experiment: In vitro skin permeation, Franz cells, finite dose, non-occlusive, pig ear skin; conditions: topical or ocular, 10 mg, pH 7.4
result_type: bioavailability at 16 h, 1.5 % FBE (%)
Give bare numbers, in %.

Record summary for CN1CCC[C@H]1c1cccnc1 : reported bioavailability at 16 h, 1.5 % FBE = 38
